Recorded IC50 for the following molecules
System: Enterococcus faecium
protocol text: Concentration required to inhibit growth of Streptococcus faecium by 50%
Type: functional, organism-based
measure: IC50 (ng/mL)

> print(dat)
                                   molecule  quantitative.result
1  Nc1nc(N)c2nc(CCSc3ccc(C(=O)NC(CCC(=O)O)C(=O)O)cc3)cnc2n1 (stereo unspecified)                    2
2  CN(Cc1cnc2nc(N)nc(N)c2n1)c1ccc(C(=O)N[C@@H](CCC(=O)O)C(=O)O)cc1 [METHOTREXATE]                 0.15
3  Nc1nc(N)c2nc(CCc3ccc(C(=O)N[C@@H](CCC(=O)O)C(=O)O)cc3)cnc2n1                  0.2
4  Nc1nc(N)c2nc(CSc3ccc(C(=O)NC(CCC(=O)O)C(=O)O)cc3)cnc2n1 (stereo unspecified)                  0.4
5  Nc1nc(N)c2nc(CCOc3ccc(C(=O)NC(CCC(=O)O)C(=O)O)cc3)cnc2n1 (stereo unspecified)                    5
6  Nc1nc(N)c2nc(COc3ccc(C(=O)NC(CCC(=O)O)C(=O)O)cc3)cnc2n1 (stereo unspecified)                  0.5
